Tested on: AEA cellular uptake, U937 cells
assay method text: [3H]-AEA cellular uptake inhibition in U937 cells
Type: cell-based
condition parameters: Table 1; U937 cells, 100 nM AEA; read-out: AEA uptake inhibition IC50
quantity: IC50 (nM)
Output spec: scalar in nM, unitless text.

>>> readout_value("CCCCC/C=C\\C/C=C\\C/C=C\\C/C=C\\CCCC(=O)NCc1ccoc1 [UCM707, reference compound]")
1900

// fetch IC50 given entry `CCOc1cc(/C=C2\S/C(=N\c3cc(Cl)ccc3C)NC2=O)ccc1O`
138

---

tested system: hCB1 receptor (Homo sapiens (Human))
Sequence (P21554 whole entry): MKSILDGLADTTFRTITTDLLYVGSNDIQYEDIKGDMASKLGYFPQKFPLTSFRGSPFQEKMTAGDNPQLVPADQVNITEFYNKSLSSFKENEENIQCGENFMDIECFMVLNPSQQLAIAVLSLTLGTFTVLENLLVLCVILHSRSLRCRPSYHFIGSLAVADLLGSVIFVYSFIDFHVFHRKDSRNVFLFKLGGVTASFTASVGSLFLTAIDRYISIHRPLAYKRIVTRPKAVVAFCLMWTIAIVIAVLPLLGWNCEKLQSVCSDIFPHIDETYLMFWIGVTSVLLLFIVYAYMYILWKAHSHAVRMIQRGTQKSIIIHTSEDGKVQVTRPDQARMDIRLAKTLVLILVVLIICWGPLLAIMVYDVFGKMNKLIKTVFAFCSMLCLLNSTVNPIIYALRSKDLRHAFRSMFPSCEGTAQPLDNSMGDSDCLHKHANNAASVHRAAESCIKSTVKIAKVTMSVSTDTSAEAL
assay method text: Radioligand CB receptor binding, [3H]-CP55,940 displacement on CHO-K1 hCB1 membranes
condition parameters: Table 4
Threshold 40%. CB1 receptor binding (%) at 10 µM below it: YES. CB1 receptor binding (%) at 10 µM at it or above: NO.

Some solved entries appear below for comparison.
>>> label("O=C1/C(=C/c2cc(Cl)c(O)c(Cl)c2)S/C(=N\\c2ccccc2)N1Cc1ccco1")
"YES"
>>> label("Cc1ccc(/N=C2\\S/C(=C\\c3ccc(O)c(Cl)c3)C(=O)N2c2ccc(C)c(Cl)c2)cc1Cl")
"NO"

Please determine if `CCOc1cc(/C=C2\S/C(=N\c3ccc(C)cc3)N(c3ccc(C)cc3)C2=O)ccc1O` is below 40% in terms of CB1 receptor binding (%) at 10 µM.
YES

Please determine if `CCOc1cc(/C=C2\S/C(=N\c3ccc(F)cc3)N(c3ccc(F)cc3)C2=O)ccc1O` is below 40% in terms of CB1 receptor binding (%) at 10 µM.
YES

Please determine if `CCCN1C(=O)/C(=C/c2ccc3c(c2)OCO3)S/C1=N\c1ccc(OC)cc1` is below 40% in terms of CB1 receptor binding (%) at 10 µM.
NO

Please determine if `C/C=C/c1cc(/C=C2\S/C(=N\c3ccccc3)N(CCOC)C2=O)cc(OCC)c1O` is below 40% in terms of CB1 receptor binding (%) at 10 µM.
YES

Please determine if `COc1cc(/C=C2\S/C(=N\c3ccccc3)N(c3ccccc3)C2=O)ccc1O` is below 40% in terms of CB1 receptor binding (%) at 10 µM.
NO

Please determine if `C=CCc1cc(/C=C2\S/C(=N\c3ccc(C(=O)OC)cc3)N(C)C2=O)cc(OCC)c1O` is below 40% in terms of CB1 receptor binding (%) at 10 µM.
YES

Please determine if `CCCN1C(=O)/C(=C/c2ccc(N(C)C)cc2)S/C1=N\c1ccccc1` is below 40% in terms of CB1 receptor binding (%) at 10 µM.
YES

Please determine if `Cc1ccc(/N=C2\S/C(=C\c3ccc(O)cc3)C(=O)N2c2ccc(C)cc2)cc1` is below 40% in terms of CB1 receptor binding (%) at 10 µM.
YES

Please determine if `COc1ccc(/C=C2\S/C(=N\c3ccc(OC)cc3)N(c3ccc(OC)cc3)C2=O)cc1` is below 40% in terms of CB1 receptor binding (%) at 10 µM.
YES

Please determine if `CCCCN1C(=O)/C(=C/c2cc(Br)c(O)c(OCC)c2)S/C1=N\c1ccccc1` is below 40% in terms of CB1 receptor binding (%) at 10 µM.
NO
